- measurement notes: qHTS for ATAD5 Antagonist screened against the NCATS CANVASS Library (AID 1347370); also: nearly all actives have a fitted effect of over 65% in size
- assay setup: HEK293T-ATAD5-luc, 5-FUrd stimulated, luminescence, 16 h; series mostly up to 46.1 µM
Inconclusive results are not listed. Active and inactive are the calls of the source. Calls follow the shape of the dose curve; as a rule, active = well fitted inhibition curve with a large enough effect; inconclusive = small, poorly fitted or top-dose-only effect; inactive = no such curve, though single readings can be large or run the other way.
Labels: T (active), F (inactive)

molecule	label
COc1cc(/C=C/C(=O)O)ccc1O	F
CNc1ccc(Cl)cc1C(=O)OC[C@]1(C)[C@H]2CC[C@]3(C)[C@@H](C[C@@H](OC)[C@H](C)[C@H]3C3=C(O)C(=O)OC3O)[C@]2(C)CC[C@H]1O (some centres not stated)	F
OCc1ccc2ocnc2c1	F
COc1c(O)cc2oc(-c3ccccc3)cc(=O)c2c1O	F
CCCCCCCCC[C@@H]1C[C@@H]2CC[C@H]3[C@@H](C(=O)OCCCCN=C(N)N)[C@@H](C)N=C(N1)N23	F
C[C@@H]1O[C@H](c2c(O)cc(O)c3c(=O)cc(-c4ccc(O)cc4)oc23)[C@H](O)[C@H](O)[C@H]1O	F
C/C=C1/CC[C@@H]2c3[nH]c4ccccc4c3CCN2C1	F
C/C(=C\[C@H](C)C(=O)CCCC1CC(=O)NC(=O)C1)C(O)[C@@H](C)[C@H](O)C/C=C/CC/C=C/C(=O)O (some centres not stated)	F
CCCCCCCCCCCCCCCC(=O)OC/C=C(\C)CCCC(C)CC(C)C(C)C (configuration not stated)	F
C=C(C)C(=O)O[C@H]1C[C@H](C)[C@@H](OC(C)=O)CC[C@@]2(C)O[C@@H]2[C@H]2OC(=O)C(COC(C)=O)=C12	T
O=C(O)Cc1c[nH]c2ccccc12	F
CC1(C)[C@H](Br)CC[C@]23C[C@]4(C)C(=O)CC12C[C@H]34	F
CO[C@H]1/C=C/CC[C@@H](S[C@@H]2O[C@H](CO)[C@@H](O)[C@H](O)[C@H]2O)CC(=O)O[C@@H](/C(C)=C/[C@H](C)C(=O)CCCC2CC(=O)NC(=O)C2)[C@@H](C)[C@@H]1O	T
CC1(C)C=Cc2c(ccc3c2OC[C@@H](c2ccc(O)cc2O)C3)O1	F
C[C@@]12CCC[C@@](C)(C(=O)O)[C@H]1C[C@@H](O)[C@]13C[C@H]4C[C@H](O[C@@]4(C)C1)[C@@H]23	F
CC(C)=CCC/C(C)=C/Cc1c(O)c(CC=C(C)C)c(O)c2c(=O)c3cc(O)ccc3oc12	T
C=CC(=C)CC[C@]1(C)[C@H]2C[C@H](OC(=O)C(C)CC)C=C3[C@H](OC(C)=O)O[C@H](OC(C)=O)[C@@]32[C@H](OC)C[C@@H]1C (some centres not stated)	T

###

- measurement notes: qHTS for Inhibitors of Plasmodium falciparum (CP250) proliferation (AID 504320)
- assay setup: P. falciparum CP250 in erythrocytes, SYBR Green DNA, 72 h; series mostly up to 6.7 µM
- Text: Plasmodium falciparum is a virulent malarial parasite that kills 1-2 million people worldwide each year. Malaria not only inflicts tremendous suffering and morbidity on the human population, but has dramatically influenced the course of civilization with profound sociological and economic implications (Shah, S. 2010). […] Because mature erythrocytes lack DNA, only Plasmodium-derived DNA is detected. […]
Results filed as inconclusive are left out. Active and inactive are the calls of the source. The call rests on the fitted dose curve; in most records, active means well fitted inhibition curve with a large enough effect; inconclusive means small, poorly fitted or top-dose-only effect, or effect the other way; inactive means flat fitted curve, though single readings scatter.
Labels: active, inactive

compound	label
C#CCNC(=O)[C@H]1C=C(OC)C(=O)C[C@H](c2ccccc2)[C@H]1C	inactive
COC(=O)C1=C(C)N(Cc2ccccc2)C(=NCc2ccc(OC)cc2)NC1c1ccccc1 (stereo not given)	inactive
COCC=CC1=CC2=CC(=O)C(C)(OC(=O)c3cnc4ccccc4n3)C(=O)C2=CN1C1CC1 (stereo not given)	inactive
Cc1cc2c(c(=O)n1Cc1ccccc1)[C@H]1O[C@](CCCCN3C(=O)c4ccccc4C3=O)(Cc3ccccc31)O2	active
CC1(OC(=O)c2ccc(Cl)nc2)C(=O)C=C2C=C(c3ccsc3)OC=C2C1=O (stereo not given)	inactive

Data origin, for the record: PubChem BioAssay (NCATS)
